Biological target: FLT4 (VEGFR3) (Homo sapiens, UniProt P35916)
Sequence (P35916 25-1363): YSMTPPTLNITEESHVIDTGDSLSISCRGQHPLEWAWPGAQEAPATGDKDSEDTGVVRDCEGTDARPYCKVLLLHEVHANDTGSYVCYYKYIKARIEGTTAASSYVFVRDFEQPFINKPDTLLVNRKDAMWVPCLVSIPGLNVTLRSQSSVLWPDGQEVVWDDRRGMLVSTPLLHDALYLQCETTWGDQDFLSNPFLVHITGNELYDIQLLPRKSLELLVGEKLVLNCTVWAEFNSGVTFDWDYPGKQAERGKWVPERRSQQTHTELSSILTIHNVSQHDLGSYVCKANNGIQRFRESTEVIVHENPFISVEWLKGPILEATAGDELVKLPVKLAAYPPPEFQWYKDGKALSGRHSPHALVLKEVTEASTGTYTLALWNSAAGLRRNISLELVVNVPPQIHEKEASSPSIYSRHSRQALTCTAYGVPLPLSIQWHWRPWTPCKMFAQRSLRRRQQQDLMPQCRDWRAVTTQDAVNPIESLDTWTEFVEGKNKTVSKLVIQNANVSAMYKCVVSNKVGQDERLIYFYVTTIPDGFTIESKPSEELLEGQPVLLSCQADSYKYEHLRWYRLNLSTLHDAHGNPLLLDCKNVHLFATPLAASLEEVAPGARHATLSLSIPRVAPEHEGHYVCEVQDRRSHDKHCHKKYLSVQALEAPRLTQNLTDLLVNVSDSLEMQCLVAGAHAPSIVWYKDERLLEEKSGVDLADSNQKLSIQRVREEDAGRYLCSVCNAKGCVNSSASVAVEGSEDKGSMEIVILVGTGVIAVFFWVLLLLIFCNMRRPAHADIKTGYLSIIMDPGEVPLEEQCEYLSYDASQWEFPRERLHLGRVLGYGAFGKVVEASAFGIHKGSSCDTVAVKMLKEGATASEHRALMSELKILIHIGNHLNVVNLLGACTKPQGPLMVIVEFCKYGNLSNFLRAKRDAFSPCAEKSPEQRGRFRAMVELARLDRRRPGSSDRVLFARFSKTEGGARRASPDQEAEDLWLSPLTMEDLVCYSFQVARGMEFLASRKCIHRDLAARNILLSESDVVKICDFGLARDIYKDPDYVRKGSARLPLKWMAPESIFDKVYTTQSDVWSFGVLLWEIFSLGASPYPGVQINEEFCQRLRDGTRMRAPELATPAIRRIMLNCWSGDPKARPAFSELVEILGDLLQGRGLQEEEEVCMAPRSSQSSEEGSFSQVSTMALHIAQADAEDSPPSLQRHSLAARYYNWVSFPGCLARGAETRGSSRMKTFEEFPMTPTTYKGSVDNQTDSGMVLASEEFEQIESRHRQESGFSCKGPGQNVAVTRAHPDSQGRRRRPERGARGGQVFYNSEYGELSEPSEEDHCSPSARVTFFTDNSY
Reported values of IC50 for individual entries
TEST READOUT: IC50 (nM)

> print(dat)
                                   molecule  reported.measurement
1  Cc1ccc(Cn2cc(COc3ccc(NC4=CC(=O)c5ccccc5C4=O)cc3)nn2)cc1 [Compound 4i]                  1340
2  O=C1C=C(Nc2ccc(OCc3cn(Cc4ccccc4)nn3)cc2)C(=O)c2ccccc21 [Compound 4a]                   554

* * *

Reported values of inhibition at 10 µM for individual entries
Target: NTRK1 (TrkA) (Homo sapiens, UniProt P04629)
Sequence (P04629 33-796): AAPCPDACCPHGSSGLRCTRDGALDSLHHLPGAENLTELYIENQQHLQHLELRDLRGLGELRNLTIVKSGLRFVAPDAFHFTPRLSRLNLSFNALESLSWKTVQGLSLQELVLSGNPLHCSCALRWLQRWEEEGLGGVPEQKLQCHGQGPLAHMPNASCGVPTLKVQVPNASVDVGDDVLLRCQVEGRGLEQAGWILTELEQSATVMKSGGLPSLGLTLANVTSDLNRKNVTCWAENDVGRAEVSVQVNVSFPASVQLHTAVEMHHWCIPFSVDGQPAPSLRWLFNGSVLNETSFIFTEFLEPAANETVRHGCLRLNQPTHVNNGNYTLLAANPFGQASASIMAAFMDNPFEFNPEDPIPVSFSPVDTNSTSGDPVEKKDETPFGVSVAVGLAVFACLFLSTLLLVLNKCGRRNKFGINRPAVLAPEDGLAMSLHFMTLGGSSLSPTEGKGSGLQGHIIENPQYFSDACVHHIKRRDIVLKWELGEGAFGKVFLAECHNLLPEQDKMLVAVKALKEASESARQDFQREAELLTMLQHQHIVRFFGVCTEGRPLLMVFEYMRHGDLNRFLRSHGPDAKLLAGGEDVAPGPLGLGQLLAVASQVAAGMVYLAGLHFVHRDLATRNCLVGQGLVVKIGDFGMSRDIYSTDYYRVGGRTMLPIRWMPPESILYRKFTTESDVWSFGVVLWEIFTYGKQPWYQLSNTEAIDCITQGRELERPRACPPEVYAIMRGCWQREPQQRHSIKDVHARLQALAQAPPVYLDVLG
Assay: Radiometric kinase assay
Type: biochemical
Settings: read-out: Kinase inhibition (%) NTRK1 (TrkA)
TEST READOUT: inhibition at 10 µM (%)

> print(dat)
                                   molecule  unit.descriptor  reported.measurement
1  O=C1C=C(Nc2ccc(OCc3cn(Cc4ccccc4)nn3)cc2)C(=O)c2ccccc21 [Compound 4a]                %                    43
2  O=C1C=C(Nc2ccc(OCc3cn(Cc4ccc(Br)cc4)nn3)cc2)C(=O)c2ccccc21 [Compound 4b]                %                     4
3  CC(C)c1ccc(Cn2cc(COc3ccc(NC4=CC(=O)c5ccccc5C4=O)cc3)nn2)cc1 [Compound 4 g]                %                     6
4  O=C1C=C(Nc2ccc(OCc3cn(Cc4ccc(Cl)c(Cl)c4)nn3)cc2)C(=O)c2ccccc21 [Compound 4e]                %                     2

* * *

Target: AXL (Homo sapiens)
Test: Radiometric kinase assay
Assay type: biochemical
Details: read-out: Kinase inhibition (%) AXL
TEST READOUT: inhibition at 10 µM (%)

> print(dat)
                            chemical.smiles         test.system  reported.measurement
1  O=C1C=C(Nc2ccc(OCc3cn(Cc4ccc(Br)cc4)nn3)cc2)C(=O)c2ccccc21  AXL (Homo sapiens)                     5
2  O=C1C=C(Nc2ccc(OCc3cn(Cc4ccccc4)nn3)cc2)C(=O)c2ccccc21  AXL (Homo sapiens)                    14
3  O=C1C=C(Nc2ccc(OCc3cn(Cc4ccc(Cl)c(Cl)c4)nn3)cc2)C(=O)c2ccccc21  AXL (Homo sapiens)                     5
4  Cc1ccc(Cn2cc(COc3ccc(NC4=CC(=O)c5ccccc5C4=O)cc3)nn2)cc1  AXL (Homo sapiens)                     8

* * *

System: EBC-1, AsPC-1, Mia-Paca-2, HT-29, MCF-7 cancer cells
Experiment: MTT antiproliferative assay, cancer cell lines summarised
Format: cell-based, human
Conditions: Homo sapiens, read-out: IC50 range against tested cell lines
TEST READOUT: IC50

> print(dat)
                                   compound                               test.system  reported.measurement
1  O=C1C=C(Nc2ccc(OCc3cn(Cc4ccc(Cl)c(Cl)c4)nn3)cc2)C(=O)c2ccccc21 [Compound 4e]  EBC-1, AsPC-1, Mia-Paca-2, HT-29, MCF-7 cancer cells         0.3 to 7.1 µM

* * *

Target: MET (Homo sapiens, UniProt P08581)
Sequence (P08581 25-1390): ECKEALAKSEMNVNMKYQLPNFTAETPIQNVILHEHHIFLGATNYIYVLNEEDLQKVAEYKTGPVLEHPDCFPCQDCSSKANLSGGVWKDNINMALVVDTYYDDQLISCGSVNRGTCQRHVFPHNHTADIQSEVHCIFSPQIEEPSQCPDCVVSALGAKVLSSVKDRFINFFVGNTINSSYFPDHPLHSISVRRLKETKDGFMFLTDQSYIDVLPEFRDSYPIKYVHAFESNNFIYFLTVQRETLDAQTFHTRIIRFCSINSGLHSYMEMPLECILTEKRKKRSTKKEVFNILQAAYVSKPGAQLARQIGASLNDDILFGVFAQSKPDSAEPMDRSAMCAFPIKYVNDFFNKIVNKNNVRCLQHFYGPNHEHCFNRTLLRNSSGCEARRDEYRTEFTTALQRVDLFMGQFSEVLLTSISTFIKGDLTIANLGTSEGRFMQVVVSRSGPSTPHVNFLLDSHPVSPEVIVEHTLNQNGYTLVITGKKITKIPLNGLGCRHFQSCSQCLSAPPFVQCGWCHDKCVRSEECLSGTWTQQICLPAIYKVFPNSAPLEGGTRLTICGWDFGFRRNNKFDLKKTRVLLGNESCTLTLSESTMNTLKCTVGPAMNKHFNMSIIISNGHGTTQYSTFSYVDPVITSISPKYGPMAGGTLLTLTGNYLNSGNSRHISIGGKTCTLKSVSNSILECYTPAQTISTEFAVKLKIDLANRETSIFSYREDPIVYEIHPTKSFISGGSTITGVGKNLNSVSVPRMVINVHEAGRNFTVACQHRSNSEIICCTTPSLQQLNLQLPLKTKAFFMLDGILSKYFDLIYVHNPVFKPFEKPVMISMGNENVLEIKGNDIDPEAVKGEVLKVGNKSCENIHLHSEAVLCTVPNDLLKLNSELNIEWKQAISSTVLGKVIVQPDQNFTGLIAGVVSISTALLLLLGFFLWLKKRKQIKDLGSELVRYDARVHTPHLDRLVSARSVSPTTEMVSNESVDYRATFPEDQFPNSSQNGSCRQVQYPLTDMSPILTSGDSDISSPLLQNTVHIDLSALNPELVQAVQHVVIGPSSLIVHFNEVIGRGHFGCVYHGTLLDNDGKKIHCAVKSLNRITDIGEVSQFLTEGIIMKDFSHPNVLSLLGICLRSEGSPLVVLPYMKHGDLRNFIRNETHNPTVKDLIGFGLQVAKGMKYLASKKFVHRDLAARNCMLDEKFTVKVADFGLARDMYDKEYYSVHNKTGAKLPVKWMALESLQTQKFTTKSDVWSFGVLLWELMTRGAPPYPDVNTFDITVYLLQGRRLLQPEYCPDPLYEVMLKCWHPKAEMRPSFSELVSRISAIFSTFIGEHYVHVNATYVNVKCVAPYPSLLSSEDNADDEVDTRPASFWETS
Test: Radiometric kinase assay
Assay type: biochemical
Conditions: read-out: Kinase inhibition (%) MET
TEST READOUT: inhibition at 10 µM (%)

> print(dat)
                            chemical.smiles  reported.measurement
1  O=C1C=C(Nc2ccc(OCc3cn(Cc4ccc(Br)cc4)nn3)cc2)C(=O)c2ccccc21                    -8
2  Cc1ccc(Cn2cc(COc3ccc(NC4=CC(=O)c5ccccc5C4=O)cc3)nn2)cc1                    16
3  CC(C)c1ccc(Cn2cc(COc3ccc(NC4=CC(=O)c5ccccc5C4=O)cc3)nn2)cc1                   -11
4  O=C1C=C(Nc2ccc(OCc3cn(Cc4ccc(Cl)c(Cl)c4)nn3)cc2)C(=O)c2ccccc21                   -14

* * *

System: Mia-Paca-2
Assay: MTT antiproliferative assay, Mia-Paca-2
Type: cell-based, human
Settings: read-out: IC50 Mia-Paca-2; MTT, 72 h, mean ± S.E.M. of 3–5 experiments
pIC50: −log10 of the molar value.
TEST READOUT: pIC50

> print(dat)
                                   compound  test.readout  reported.measurement
1  N.N.[Cl][Pt][Cl] [Cisplatin, reference compound]         pIC50                  4.66

* * *

Target: FLT4 (VEGFR3) (Homo sapiens)
Assay: Radiometric kinase assay
Format: biochemical
Settings: read-out: Kinase inhibition (%) FLT4 (VEGFR3)
Reported values of inhibition at 10 µM for individual entries
TEST READOUT: inhibition at 10 µM (%)

> print(dat)
                                   compound  reported.measurement
1  CC(C)c1ccc(Cn2cc(COc3ccc(NC4=CC(=O)c5ccccc5C4=O)cc3)nn2)cc1 [Compound 4 g]                     9
2  O=C1C=C(Nc2ccc(OCc3cn(Cc4ccc(Cl)c(Cl)c4)nn3)cc2)C(=O)c2ccccc21 [Compound 4e]                    30
3  Cc1ccc(Cn2cc(COc3ccc(NC4=CC(=O)c5ccccc5C4=O)cc3)nn2)cc1 [Compound 4i]                    87
4  O=C1C=C(Nc2ccc(OCc3cn(Cc4ccccc4)nn3)cc2)C(=O)c2ccccc21 [Compound 4a]                    87

* * *

Molecular target: PDGFRA (PDGFRα) (Homo sapiens, UniProt P16234)
Sequence (P16234 24-1089): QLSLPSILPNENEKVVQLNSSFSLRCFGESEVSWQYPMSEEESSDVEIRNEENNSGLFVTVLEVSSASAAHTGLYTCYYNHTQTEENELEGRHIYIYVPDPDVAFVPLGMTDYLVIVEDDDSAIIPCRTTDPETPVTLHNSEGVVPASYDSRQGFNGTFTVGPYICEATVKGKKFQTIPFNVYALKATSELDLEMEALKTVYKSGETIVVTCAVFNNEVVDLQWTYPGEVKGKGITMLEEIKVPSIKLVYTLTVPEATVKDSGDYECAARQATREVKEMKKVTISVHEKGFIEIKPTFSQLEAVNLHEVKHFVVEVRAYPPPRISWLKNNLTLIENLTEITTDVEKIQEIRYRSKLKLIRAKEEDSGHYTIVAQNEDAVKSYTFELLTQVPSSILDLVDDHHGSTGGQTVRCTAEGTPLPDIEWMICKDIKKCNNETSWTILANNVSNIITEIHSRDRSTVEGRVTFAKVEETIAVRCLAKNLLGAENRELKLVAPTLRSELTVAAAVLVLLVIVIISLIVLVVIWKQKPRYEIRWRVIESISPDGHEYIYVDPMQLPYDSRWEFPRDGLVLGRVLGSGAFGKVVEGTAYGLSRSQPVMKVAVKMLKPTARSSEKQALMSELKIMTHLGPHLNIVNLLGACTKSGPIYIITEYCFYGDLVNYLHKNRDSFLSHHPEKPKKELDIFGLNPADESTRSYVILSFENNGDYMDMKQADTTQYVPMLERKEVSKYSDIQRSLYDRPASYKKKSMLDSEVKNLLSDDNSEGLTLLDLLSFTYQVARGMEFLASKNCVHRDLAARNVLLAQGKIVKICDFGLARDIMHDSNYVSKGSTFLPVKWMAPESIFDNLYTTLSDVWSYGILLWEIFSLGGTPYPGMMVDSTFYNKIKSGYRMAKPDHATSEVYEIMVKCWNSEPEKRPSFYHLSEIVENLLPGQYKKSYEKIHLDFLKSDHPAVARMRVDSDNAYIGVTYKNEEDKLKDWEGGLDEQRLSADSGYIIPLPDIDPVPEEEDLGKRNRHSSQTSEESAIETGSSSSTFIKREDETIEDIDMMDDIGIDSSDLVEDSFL
Test: Radiometric kinase assay
Format: biochemical
Settings: read-out: Kinase inhibition (%) PDGFRA (PDGFRα)
Reported values of inhibition at 10 µM for individual entries
TEST READOUT: inhibition at 10 µM (%)

> print(dat)
                            chemical.smiles         test.readout  reported.measurement
1  O=C1C=C(Nc2ccc(OCc3cn(Cc4ccccc4)nn3)cc2)C(=O)c2ccccc21  inhibition at 10 µM                    71
2  O=C1C=C(Nc2ccc(OCc3cn(Cc4ccc(Br)cc4)nn3)cc2)C(=O)c2ccccc21  inhibition at 10 µM                    37
3  O=C1C=C(Nc2ccc(OCc3cn(Cc4ccc(Cl)c(Cl)c4)nn3)cc2)C(=O)c2ccccc21  inhibition at 10 µM                    43
4  Cc1ccc(Cn2cc(COc3ccc(NC4=CC(=O)c5ccccc5C4=O)cc3)nn2)cc1  inhibition at 10 µM                    74
5  CC(C)c1ccc(Cn2cc(COc3ccc(NC4=CC(=O)c5ccccc5C4=O)cc3)nn2)cc1  inhibition at 10 µM                    29

* * *

Molecular target: PDGFRB (PDGFRβ) (Homo sapiens)
Assay: Radiometric kinase assay
Assay type: biochemical
Conditions: read-out: Kinase inhibition (%) PDGFRB (PDGFRβ)
TEST READOUT: inhibition at 10 µM (%)

> print(dat)
                                   compound         test.readout  reported.measurement
1  O=C1C=C(Nc2ccc(OCc3cn(Cc4ccccc4)nn3)cc2)C(=O)c2ccccc21 [Compound 4a]  inhibition at 10 µM                    16
2  Cc1ccc(Cn2cc(COc3ccc(NC4=CC(=O)c5ccccc5C4=O)cc3)nn2)cc1 [Compound 4i]  inhibition at 10 µM                     5
3  O=C1C=C(Nc2ccc(OCc3cn(Cc4ccc(Cl)c(Cl)c4)nn3)cc2)C(=O)c2ccccc21 [Compound 4e]  inhibition at 10 µM                    14
4  O=C1C=C(Nc2ccc(OCc3cn(Cc4ccc(Br)cc4)nn3)cc2)C(=O)c2ccccc21 [Compound 4b]  inhibition at 10 µM                    17

* * *

Reported values of IC50 for individual entries
Molecular target: CDK2/cyclin A (Homo sapiens)
Test: Radiometric kinase assay
TEST READOUT: IC50

> print(dat)
                            chemical.smiles  reported.measurement
1  Cc1ccc(Cn2cc(COc3ccc(NC4=CC(=O)c5ccccc5C4=O)cc3)nn2)cc1               11.3 µM
2  O=C1C=C(Nc2ccc(OCc3cn(Cc4ccccc4)nn3)cc2)C(=O)c2ccccc21               1.67 µM

Every entry's value here was drawn from paper PMC11850817.
